Below, each of the molecules is paired with its reported AUC(0-t) value.
# Assay Method Text: Pharmacokinetic study in rat plasma after oral administration of RCR and WCR oral liquid medicine
# Type: in vivo, Sprague-Dawley rats
# Assay Conditions: male, Sprague-Dawley, rat, plasma, po, 24.01 g/kg, oral WCR 24.01 g/kg, n = 6, mean ± SD
Measured Property: AUC(0-t) (ng·h/mL)

molecule="COc1cc(/C=C/C(=O)O)ccc1O [Ferulic Acid, ferulic acid]" measured_property=AUC(0-t) observed=4460
molecule="CCC/C=C1\\OC(=O)c2ccccc21 [Butylidenephthalide, butylidenephthalide]" measured_property=AUC(0-t) observed=384
molecule="CCCCC1OC(=O)C2=C1CCC=C2 (stereo not shown) [Senkyunolide A, senkyunolide A]" measured_property=AUC(0-t) observed=804
molecule="CCC/C=C1\\OC(=O)C2=C1CCC=C2 [Ligustilide, ligustilide]" measured_property=AUC(0-t) observed=3310

====

# Assay Method Text: Pharmacokinetic study in rat plasma after oral administration of RCR and WCR oral liquid medicine
# Format: in vivo, Sprague-Dawley rats
# Assay Conditions: male, Sprague-Dawley, rat, plasma, po, 24.01 g/kg, oral WCR 24.01 g/kg, n = 6, mean ± SD
# Description: RCR (300 g) and WCR (300 g) were weighed and soaked in water (6:1, v/w) for 20 min respectively, then refluxed for 30 min and extracted twice. Finally, the extracts of RCR and WCR were filtered, combined, and concentrated to 1.20 g/mL respectively. The concentrated extracts were stored in a refrigerator at 4 °C before use. […] The pharmacokinetic parameters of the analytes were evaluated using Phoenix WinNonlin software (version 6.0, Pharsight Corporation, CA, USA). […]
Below, each of the molecules is paired with its reported Cmax value.
Measured Property: Cmax (ng/mL)

molecule="CCCCC1OC(=O)C2=C1CCC=C2 (stereo not shown) [Senkyunolide A, senkyunolide A]" observed=151
molecule=COc1cc(/C=C/C(=O)O)ccc1O observed=9530
molecule="CCC/C=C1\\OC(=O)C2=C1CCC=C2 [Ligustilide, ligustilide]" observed=192
molecule="CCC/C=C1\\OC(=O)c2ccccc21 [Butylidenephthalide, butylidenephthalide]" observed=52.1

====

Below, each of the compounds is paired with its reported AUC(0-inf) value.
# Assay Method Text: Pharmacokinetic study in rat plasma after oral administration of RCR and WCR oral liquid medicine
# Type: in vivo, Sprague-Dawley rats
# Assay Conditions: male, Sprague-Dawley, rat, plasma, po, 24.01 g/kg, oral RCR 24.01 g/kg, n = 6, mean ± SD
Measured Property: AUC(0-inf) (ng·h/mL)

compound="CCC/C=C1\\OC(=O)c2ccccc21 [Butylidenephthalide, butylidenephthalide]" observed=782
compound="CCC/C=C1\\OC(=O)C2=C1CCC=C2 [Ligustilide, ligustilide]" observed=4110
compound="CCCCC1OC(=O)C2=C1CCC=C2 (stereo not shown) [Senkyunolide A, senkyunolide A]" observed=1840
compound=COc1cc(/C=C/C(=O)O)ccc1O observed=13400
